Cited source for all entries: the METLIN SMRT retention time set (Domingo-Almenara et al. 2019)

- Test description: gradient 5% acetonitrile 3 min, to 50% in 2 min, to 85% in 15 min, held 3 min, 100 µL/min
- Condition summary: column: Zorbax Extend-C18 2.1 x 50 mm; eluents: water / acetonitrile, 0.1% formic acid
Attribute: RP-LC retention time
Output spec: scalar in s, unitless text.

[[record]]
compound = "Cc1ccc(F)c(NC(=O)c2cc(C(C)C)n3nccc3n2)c1"
result_number = 1250

[[record]]
compound = "CCc1ccc(-c2nc(-c3ccc(-n4cccn4)nc3)no2)cc1"
result_number = 1470

[[record]]
compound = "Cc1cc(-c2cc(S(=O)(=O)NCCCOC(C)C)c(C)s2)n[nH]1"
result_number = 770


Exam item: // lookup RP-LC retention time for `CC(C)Cc1csc(-c2csc(S(=O)(=O)NCc3ccccc3Cl)c2)n1`
Marked response: 1330

====

- Test description: gradient 5% acetonitrile 3 min, to 50% in 2 min, to 85% in 15 min, held 3 min, 100 µL/min
- Condition summary: column: Zorbax Extend-C18 2.1 x 50 mm; eluents: water / acetonitrile, 0.1% formic acid
Reported property: RP-LC retention time (s)
Output spec: scalar in s, unitless text.

Below are worked cases with known answers.
[[record]]
compound = "CC1CN(Cc2ccccc2)c2nc3c(c(=O)n(CCN4CCOCC4)c(=O)n3C)n2C1 (stereo not given)"
result_number = 666

[[record]]
compound = "O=C(c1cccnc1)N1CCc2c([nH]c3ccccc23)C1c1ccc(Cl)cc1 (stereo not given)"
result_number = 998

[[record]]
compound = "CCc1nnc2ccc(-c3noc(CNC(=O)c4ccccc4)n3)cn12"
result_number = 651


Exam item: // lookup RP-LC retention time for `Cc1nc(NCCCn2ccnc2)nc(Nc2ccccc2)c1[N+](=O)[O-]`
Marked response: 589

Exam item: // lookup RP-LC retention time for `CCN(CC)C(=O)c1ccc2c(c1)N(CC(=O)N(C)Cc1ccccc1)C(=O)CS2`
Marked response: 787

====

- Test description: gradient 5% acetonitrile 3 min, to 50% in 2 min, to 85% in 15 min, held 3 min, 100 µL/min
- Condition summary: column: Zorbax Extend-C18 2.1 x 50 mm; eluents: water / acetonitrile, 0.1% formic acid
Reported property: RP-LC retention time (s)
Output spec: scalar in s, unitless text.

Below are worked cases with known answers.
[[record]]
molecule = "COc1ccc(S(=O)(=O)N2CC3CN(C(=O)C(C)Oc4ccccc4)CC(C2)O3)cc1 (stereo not drawn)"
units_text = "s"
result_number = 844

[[record]]
molecule = "CS(=O)(=O)N1CCCC1C(=O)Nc1ccc(F)cc1 (stereo not drawn)"
units_text = "s"
result_number = 693

[[record]]
molecule = "Cc1ccc(N2C=C(C(=O)N3CCOCC3)S(=O)(=O)c3ccc(Cl)cc32)cc1F"
units_text = "s"
result_number = 886


Exam item: // lookup RP-LC retention time for `Cc1cn2c(=O)c(S(=O)(=O)N3CCN(c4ccccn4)CC3)c(C)nc2s1`
Marked response: 601

Exam item: // lookup RP-LC retention time for `COC(=O)c1c(C)[nH]c(C(=O)N2CCC(CC(=O)NCc3ccccc3Cl)CC2)c1C`
Marked response: 775

====

- Test description: gradient 5% acetonitrile 3 min, to 50% in 2 min, to 85% in 15 min, held 3 min, 100 µL/min
- Condition summary: column: Zorbax Extend-C18 2.1 x 50 mm; eluents: water / acetonitrile, 0.1% formic acid
Attribute: RP-LC retention time
Output spec: scalar in s, unitless text.

Exam item: // lookup RP-LC retention time for COc1ccccc1NC(=O)C1CCCN1S(=O)(=O)c1cc2c(cc1C)NC(=O)C(C)O2 (centres undefined)
Marked response: 801
